Here, each record is paired with measured pIC50 data.
Molecular target: human recombinant Dipeptidyl peptidase IV enzyme (Homo sapiens)
Assay: In-vitro DPP-IV assay (cleavage of Gly-Pro-AMC)
Conditions: n = 3, substrate Gly-Pro-AMC, 30° C., 30 minutes, read-out: DPP-IV inhibition IC50
Counter-ions that a name gives are not always drawn.
// returns pIC50 (minus log10 of molar concentration), number only

Guide cases for pIC50, answers given:
>>> observed("N#Cc1ccc(NCC2CCC(NCC(=O)N3C[C@@H](F)C[C@H]3C#N)C2)nc1 (mixture of isomers)")
8.45
>>> observed("N#Cc1ccc(NC[C@@H]2CC[C@H](NCC(=O)N3CCC[C@H]3C#N)C2)nc1 [Example-10]")
8.11
>>> observed("N#C[C@@H]1CCCN1C(=O)CNC1CCC(CNc2ccc([N+](=O)[O-])cc2F)C1 (mixture of isomers)")
8.20
>>> observed("N#Cc1ccc(NC[C@H]2CC[C@@H](NCC(=O)N3CCC[C@H]3C#N)C2)nc1 [Example-8]")
7.98

Recorded pIC50 for N#Cc1ccc(NCC2CCC(NCC(=O)N3CCC[C@H]3C#N)C2)nc1 (mixture of isomers) [Example-5, maleate] , please? 7.99

Recorded pIC50 for N#Cc1ccc(NCC2CCC(NCC(=O)N3CSC[C@H]3C#N)C2)nc1 (mixture of isomers) [Example-16, dihydrochloride] , please? 8.56

Recorded pIC50 for N#Cc1ccc(OC[C@@H]2CC[C@H](NCC(=O)N3CCC[C@H]3C#N)C2)cc1 , please? 7.93

----------
Target: human recombinant Dipeptidyl peptidase IV enzyme (Homo sapiens)
Assay: In-vitro DPP-IV assay (cleavage of Gly-Pro-AMC)
Details: n = 3, substrate Gly-Pro-AMC, 30° C., 30 minutes, read-out: DPP-IV inhibition IC50
Method: Protocol for In-Vitro DPP-IV Assay DPPIV activity was determined by the cleavage rate of 7-amino-4-methyl coumarin (AMC) from synthetic substrate Glycyl-Prolyl-AMC. […] Fluorescence was measured using Fluorostar at excitation filter of 380 nm and emission filter of 460 nm). […] Test compounds dissolved in DMSO at 5–6 concentrations were tested in duplicate along with the solvent control and blank samples. […] IC50 values were calculated from 3 experiments using the prism software.
Assign labels as follows, please: Y for IC50 below 7 nM; N for IC50 equal to or exceeding 7 nM.

>>> group("N#C[C@@H]1CCCN1C(=O)CN[C@H]1CC[C@@H](CSc2ccccn2)C1")
"N"
>>> group("N#C[C@@H]1CCCN1C(=O)CN[C@H]1CC[C@@H](CNc2ncccn2)C1")
"Y"
>>> group("N#Cc1ccc(NCC2C=CC(NCC(=O)N3CCC[C@H]3C#N)C2)nc1 (mixture of isomers)")
"N"
>>> group("N#Cc1ccc(NCC2CCC(NCC(=O)N3CCC[C@H]3C#N)C2)nc1 (mixture of isomers) [Example-3]")
"Y"

Does the reported IC50 of N#Cc1ccc(NC[C@H]2CC[C@@H](NCC(=O)N3C[C@@H](F)C[C@H]3C#N)C2)nc1 stay below 7 nM? Y

----------
Molecular target: human recombinant Dipeptidyl peptidase IV enzyme (Homo sapiens, UniProt P27487)
Sequence (P27487 whole entry): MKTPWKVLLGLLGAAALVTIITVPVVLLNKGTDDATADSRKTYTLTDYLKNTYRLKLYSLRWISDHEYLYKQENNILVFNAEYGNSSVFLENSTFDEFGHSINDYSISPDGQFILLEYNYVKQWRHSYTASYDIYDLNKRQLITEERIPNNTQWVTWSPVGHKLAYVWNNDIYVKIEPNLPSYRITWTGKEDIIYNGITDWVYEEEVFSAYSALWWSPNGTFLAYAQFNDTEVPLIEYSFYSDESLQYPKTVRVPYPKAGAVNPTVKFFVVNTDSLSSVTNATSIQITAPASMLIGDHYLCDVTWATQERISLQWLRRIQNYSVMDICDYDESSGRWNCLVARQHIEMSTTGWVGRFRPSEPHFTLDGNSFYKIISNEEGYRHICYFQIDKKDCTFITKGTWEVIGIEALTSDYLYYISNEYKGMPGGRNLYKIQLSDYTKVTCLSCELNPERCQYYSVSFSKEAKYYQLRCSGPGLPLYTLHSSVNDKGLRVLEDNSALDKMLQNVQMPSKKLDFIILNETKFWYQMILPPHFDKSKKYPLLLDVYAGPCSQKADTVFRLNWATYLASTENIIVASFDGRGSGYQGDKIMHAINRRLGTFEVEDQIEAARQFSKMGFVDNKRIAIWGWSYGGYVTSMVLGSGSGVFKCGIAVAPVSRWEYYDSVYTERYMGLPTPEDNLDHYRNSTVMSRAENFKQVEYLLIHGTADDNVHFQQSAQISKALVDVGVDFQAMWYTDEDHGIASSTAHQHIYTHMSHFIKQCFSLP
Assay: In-vitro DPP-IV assay (cleavage of Gly-Pro-AMC)
Conditions: n = 3, substrate Gly-Pro-AMC, 30° C., 30 minutes, read-out: DPP-IV inhibition IC50
Counter-ions that a name gives are not always drawn.
Here, each record is paired with measured IC50 data.
Field: numeric (nM). Do not append units.

Recorded IC50 for N#C[C@@H]1CCCN1C(=O)CN[C@H]1CC[C@@H](CSc2ccccc2)C1 [Example-32] , please? 37

Recorded IC50 for N#C[C@@H]1CCCN1C(=O)CN[C@H]1CC[C@@H](COc2ccc([N+](=O)[O-])cc2)C1 [Example-45] , please? 49.9

Recorded IC50 for N#Cc1ccc(NC[C@H]2CC[C@@H](NCC(=O)N3CCC[C@H]3C#N)C2)nc1 [Example-9, dihydrochloride] , please? 6.27

Recorded IC50 for N#Cc1ccc(S(=O)(=O)CC2CCC(NCC(=O)N3CCC[C@H]3C#N)C2)nc1 (mixture of isomers) [Example-40] , please? 78.7

Recorded IC50 for N#Cc1ccc(NC[C@@H]2CC[C@@H](NCC(=O)N3CCC[C@H]3C#N)C2)nc1 (racemic) [Example-13] , please? 12.1

Recorded IC50 for N#C[C@@H]1C[C@H](F)CN1C(=O)CN[C@@H]1CC[C@H](CNc2ccc([N+](=O)[O-])cc2F)C1 [Example-26] , please? 5.16

Recorded IC50 for N#C[C@@H]1CCCN1C(=O)CNC1CCC(CNc2ccc([N+](=O)[O-])c(Cl)c2)C1 (mixture of isomers) [Example-23] , please? 14.6

Recorded IC50 for N#C[C@@H]1CCCN1C(=O)CNC1CCC(CS(=O)(=O)c2ccccc2)C1 (mixture of isomers) [Example-29] , please? 10

Recorded IC50 for N#Cc1ccc(NCC2CCC(NCC(=O)N3CCC[C@H]3C#N)C2)nc1 (mixture of isomers) [Example-4, dihydrochloride] , please? 10

Recorded IC50 for N#C[C@@H]1CCCN1C(=O)CNC1CCC(CSc2ccccc2)C1 (mixture of isomers) [Example-28] , please? 22.3

Recorded IC50 for N#Cc1ccc(SCC2CCC(NCC(=O)N3CCC[C@H]3C#N)C2)nc1 (mixture of isomers) [Example-38] , please? 9.42

Recorded IC50 for N#C[C@@H]1CCCN1C(=O)CN[C@@H]1CC[C@H](CSc2nc3ccccc3[nH]2)C1 [Example-42] , please? 26.8

Recorded IC50 for N#C[C@@H]1CCCN1C(=O)CNC1CCC(CNc2ncccn2)C1 (mixture of isomers) [Example-18] , please? 9.8

Recorded IC50 for N#Cc1ccc(NC[C@@H]2CC[C@H](NCC(=O)N3CCC[C@H]3C#N)C2)nc1 [Example-11, dihydrochloride] , please? 13.9

Recorded IC50 for N#C[C@@H]1CCCN1C(=O)CNC1CCC(COc2ccc([N+](=O)[O-])cc2)C1 (mixture of isomers) [Example-43] , please? 35.9

----------
Target: human recombinant Dipeptidyl peptidase IV enzyme (Homo sapiens, UniProt P27487)
Experiment: In-vitro DPP-IV assay (cleavage of Gly-Pro-AMC)
Details: n = 3, substrate Gly-Pro-AMC, 30° C., 30 minutes, read-out: DPP-IV inhibition IC50
Counter-ions that a name gives are not always drawn.
Here, each record is paired with measured log10(IC50) data.
Could you please treat all values as log10 of IC50 in nM?

>>> observed("N#Cc1ccc(OC[C@H]2CC[C@@H](NCC(=O)N3C[C@@H](F)C[C@H]3C#N)C2)cc1F")
0.41
>>> observed("N#C[C@@H]1CCCN1C(=O)CN[C@@H]1CC[C@H](CSc2ncccn2)C1")
1.20
>>> observed("N#C[C@@H]1CCCN1C(=O)CN[C@@H]1CC[C@H](CSc2ccccc2)C1")
1.80

Recorded log10(IC50) for N#Cc1ccc(NC[C@@H]2CC[C@@H](NCC(=O)N3CSC[C@H]3C#N)C2)nc1 (racemic) [Example-17, dihydrochloride] , please? 0.47

----------
Here, each record is paired with measured IC50 data.
Molecular target: human recombinant Dipeptidyl peptidase IV enzyme (Homo sapiens, UniProt P27487)
Assay: In-vitro DPP-IV assay (cleavage of Gly-Pro-AMC)
Settings: n = 3, substrate Gly-Pro-AMC, 30° C., 30 minutes, read-out: DPP-IV inhibition IC50
Structures can show the parent of a compound that is named as a salt.
Field: numeric (nM). Do not append units.

>>> observed("N#C[C@@H]1CCCN1C(=O)CN[C@@H]1CC[C@H](CNc2ncccn2)C1")
41.3
>>> observed("N#C[C@@H]1CCCN1C(=O)CN[C@H]1CC[C@@H](CSc2ccc(F)cc2)C1")
26.1
>>> observed("N#Cc1ccc(NCC2CCC(NCC(=O)N3CCC[C@H]3C#N)C2)nc1 (mixture of isomers) [Example-7, citrate]")
11.7

Recorded IC50 for N#C[C@@H]1CCCN1C(=O)CN[C@@H]1CC[C@H](CNc2nnnn2-c2ccccc2)C1 , please? 10.4

----------
Here, each record is paired with measured IC50 data.
Target: human recombinant Dipeptidyl peptidase IV enzyme (Homo sapiens)
Experiment: In-vitro DPP-IV assay (cleavage of Gly-Pro-AMC)
Conditions: n = 3, substrate Gly-Pro-AMC, 30° C., 30 minutes, read-out: DPP-IV inhibition IC50
Field: numeric (nM). Do not append units.

Guide cases for IC50, answers given:
>>> observed("N#C[C@@H]1CCCN1C(=O)CN[C@@H]1CC[C@H](COc2ccc([N+](=O)[O-])cc2)C1")
25.8
>>> observed("N#Cc1ccc(OC[C@H]2CC[C@@H](NCC(=O)N3CCC[C@H]3C#N)C2)cc1F")
23.5

Recorded IC50 for N#C[C@@H]1CCCN1C(=O)CN[C@@H]1CC[C@H](CNc2ccc([N+](=O)[O-])cc2F)C1 , please? 8.59

Recorded IC50 for N#C[C@@H]1CCCN1C(=O)CN[C@H]1CC[C@@H](CS(=O)(=O)c2ccccc2)C1 , please? 57.3

Recorded IC50 for N#C[C@@H]1CCCN1C(=O)CN[C@H]1C=C[C@@H](CSc2ccccn2)C1 , please? 70.9
